// CXCR1/Parental Ratio lookup, one value per entry
molecular target: CXCR1 (UniProt P25024); test: flow cytometry, CXCR1-U2OS / parental U2OS
Sequence (P25024 whole entry): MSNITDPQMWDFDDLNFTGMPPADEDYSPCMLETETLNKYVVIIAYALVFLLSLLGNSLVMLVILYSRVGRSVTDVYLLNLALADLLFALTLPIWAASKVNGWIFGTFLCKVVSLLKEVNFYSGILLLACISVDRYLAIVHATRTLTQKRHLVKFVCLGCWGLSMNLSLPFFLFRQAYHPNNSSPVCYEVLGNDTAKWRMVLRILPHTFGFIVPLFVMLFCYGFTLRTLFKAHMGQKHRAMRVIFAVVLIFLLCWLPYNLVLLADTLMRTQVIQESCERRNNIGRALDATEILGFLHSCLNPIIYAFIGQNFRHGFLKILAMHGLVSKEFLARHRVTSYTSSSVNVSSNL
The answer should be written as a number, with no unit following it.

binder	CXCR1/Parental Ratio
VH4-34+CDR3-IL8_CDR2 E50S / V1-47 IgG (antibody, part only; not given: V1-47 light chain, part only) VH: QVQLQQWGAGLLKPSETLSLTCAVYGGSFSGYYWSWIRQPPGKGLEWIGSINHSGSTNYNPSLKSRVTISVDTSKNQFSLKLSSVTAADTAVYYCTSVHQETKKYQSPRSAKELRCQCIKTYSKPFHPKFIKELRVIESGPHCANTEIIVKLSDGRELCLDPKENWVQRVVEKFLKRAENSGSGSYTYNYEWHVDVWGQGLLVTVSSAS	3.3

Quick one: CXCR1/Parental Ratio of VH4-34+CDR3-IL8_CDR1 G31D,Y32K_CDR2 E50S / V1-47 IgG (antibody, part only; not given: V1-47 light chain, part only) VH: QVQLQQWGAGLLKPSETLSLTCAVYGGSFSDKYWSWIRQPPGKGLEWIGSINHSGSTNYNPSLKSRVTISVDTSKNQFSLKLSSVTAADTAVYYCTSVHQETKKYQSPRSAKELRCQCIKTYSKPFHPKFIKELRVIESGPHCANTEIIVKLSDGRELCLDPKENWVQRVVEKFLKRAENSGSGSYTYNYEWHVDVWGQGLLVTVSSAS ? 1.4
